Test system: T-47D breast
EXPERIMENT SUMMARY: NCI-60 one-dose screen, 48 h
CONDITION NOTES: 10 µM unless noted
The panel holds about 83,000 compounds, 20% with a hit somewhere; the sample as a whole holds those more often. Active and inactive are the calls of the source. The calls were made as follows: active = growth percent below 10; inactive = the rest.
Classes used: 1 (active), 0 (inactive)

[[record]]
molecule = "CCOC(=O)C(NC(=O)C(Cc1ccc(N(CCCl)CCCl)cc1)NC(C)=O)C(C)C (stereo unspecified)"
test_system = "T-47D breast"
classification = 0

[[record]]
molecule = "CCC(=O)OC1CCn2c1nc1c2C(=O)C(C)=C(N2CC2)C1=O (stereo unspecified)"
test_system = "T-47D breast"
classification = 0

[[record]]
molecule = "CC[n+]1c(-c2ccccc2)c2cc(N)ccc2c2ccc(N)cc21"
test_system = "T-47D breast"
classification = 0

[[record]]
molecule = "Cc1cc(N=Nc2ccccc2C)ccc1N"
test_system = "T-47D breast"
classification = 0

[[record]]
molecule = "CC[C@@]1(O)C(=O)OCc2c1cc1n(c2=O)Cc2cc3ccccc3nc2-1"
test_system = "T-47D breast"
classification = 1

[[record]]
molecule = "Cc1c(N)nc([C@H](CC(N)=O)NC[C@H](N)C(N)=O)nc1C(=O)N[C@H](C(=O)N[C@H](C)[C@@H](O)[C@H](C)C(=O)N[C@H](C(=O)NCCc1nc(-c2nc(C(=O)NCCC[S+](C)C)cs2)cs1)[C@@H](C)O)C(OC1OC(CO)C(O)C(O)C1OC1OC(CO)C(O)C(OC(N)=O)C1O)c1cnc[nH]1 (stereo partly specified)"
test_system = "T-47D breast"
classification = 0


Data origin, for the record: PubChem BioAssay (NCI)
